# Assayed System: AgNbp2
# Assay Comment: SPOT peptide array binding signal intensity (averaged, normalized) (arbitrary units (background-subtracted, floor 0; scale differs between SH3 domains)); higher = stronger binding of the SH3 domain to the peptide
Heads up, the class ranges for SPOT peptide array binding signal intensity are lower range = under 10, middle range = from 10 up to 300, upper range = 300 and over

# example entries with known answers
Binder: TKPTPPPKPSHLKPK
Cat: lower range

Binder: EREKALPPIPFTTTL
Cat: lower range

Binder: VYTRTAFQIPGDDKI
Cat: lower range

Hi there! Could you help me figure out the category for DLPLPDLPPEPPTEL please?
lower range

Record: QTREPNEPPPPSPAM
lower range

Now consider HAPPLPPTAPPPPSL .
lower range

Proceed to VPVAPPPPPASLGQS
lower range

Moving on to the next binder: NAGIRPKFILALNDE
lower range

Values were extracted from the supplement of paper PMC4466140.
